EXPERIMENTAL_SYSTEM: homomeric α1 GlyR (Homo sapiens, UniProt P23415)
Construct: expressed in transfected cells; host or cells: CHO cells
TEST_METHOD_NOTES: Whole-cell patch-clamp of glycine-induced currents, α1 GlyR expressed in CHO cells
Assay type: cell-based
PARTICULARS: +80 mV; glycine 100 μM; ramp protocol; mean ± SEM; read-out: IC50 of NFA
PROPERTY_NAME: IC50 (µM)
State just the number; it will be interpreted in µM.

Q) Which IC50 value belongs to `O=C(O)c1cccnc1Nc1cccc(C(F)(F)F)c1` ?
A) 90

---

EXPERIMENTAL_SYSTEM: homomeric α1 GlyR (Homo sapiens, UniProt P23415)
Construct: expressed in transfected cells; host or cells: CHO cells
Sequence (P23415 29-449 isoform P23415-2 limits assumed): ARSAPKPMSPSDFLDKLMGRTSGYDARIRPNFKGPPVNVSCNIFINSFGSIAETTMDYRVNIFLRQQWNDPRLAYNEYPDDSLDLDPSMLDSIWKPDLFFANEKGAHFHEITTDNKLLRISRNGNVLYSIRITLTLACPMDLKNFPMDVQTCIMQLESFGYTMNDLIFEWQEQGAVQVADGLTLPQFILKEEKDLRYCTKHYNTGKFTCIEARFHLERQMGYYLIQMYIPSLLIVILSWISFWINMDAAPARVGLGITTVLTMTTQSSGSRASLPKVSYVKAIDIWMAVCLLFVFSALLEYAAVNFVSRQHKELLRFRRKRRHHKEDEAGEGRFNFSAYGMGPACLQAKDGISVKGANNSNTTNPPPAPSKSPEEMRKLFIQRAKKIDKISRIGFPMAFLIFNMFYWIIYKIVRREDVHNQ
TEST_METHOD_NOTES: Whole-cell patch-clamp of glycine-induced currents, α1 GlyR expressed in CHO cells
Format: cell-based
PARTICULARS: +30 mV; glycine 100 μM; representative; read-out: NFA IC50 (representative IC50 curve)
PROPERTY_NAME: pIC50
pIC50 here: minus log base 10 of the concentration, concentration in moles per litre.

Q) Dear colleague, I am looking for the recorded pIC50 of the following compound: `O=C(O)c1cccnc1Nc1cccc(C(F)(F)F)c1`
A) 3.97
